# System: P. falciparum 3D7 trophozoites
# Test summary: Metabolomic fingerprint profiling LC-MS
# Type: cell-based, Plasmodium falciparum
# Experimental setup: metabolite UDP-D-glucuronate, S2 Table Metabolomics
Exercise: for every item that follows, state its recorded UDP-D-glucuronate.
Answers are plain numbers.

In the examples that follow, each entry is paired with its recorded UDP-D-glucuronate.
>  <Compound>
COc1ccc(-c2nc3cc(Cc4ccc5[nH]c(-c6ccc(OC)cc6)nc5c4)ccc3[nH]2)cc1 [MMV007384]

>  <UDP-D-glucuronate>
-0.3283

$$$$
>  <Compound>
CCOC(=O)C1=C(c2ccccc2)N=c2sc(=Cc3cc(C)n(-c4ccc(F)cc4)c3C)c(=O)n2C1c1cccc(OC)c1OC (stereo not shown) [MMV666601]

>  <UDP-D-glucuronate>
-0.09865

$$$$
>  <Compound>
Cc1ccc(Nc2nc(-c3ccccn3)cs2)cc1 [MMV007907]

>  <UDP-D-glucuronate>
0.1137

$$$$
>  <Compound>
Cc1ccc(Nc2nc(NCCO)c3ccccc3n2)cc1C [MMV001038]

>  <UDP-D-glucuronate>
0.1087

$$$$
>  <Compound>
CCCN(CCC)CC(O)COc1ccccc1C(=O)Nc1ccccc1 (stereo not shown) [MMV006455]

>  <UDP-D-glucuronate>
-0.0808

$$$$

Consider the following items and state reported UDP-D-glucuronate for each.
1. CCN(CC)CCNc1ccnc2cc(Cl)ccc12 [MMV006087]
2. O=[N+]([O-])c1ccc(C=NNc2nc3ccccc3[nH]2)cc1 [MMV666607]

Result:
1. -0.03795
2. -0.006477
